Data origin, for the record: ChEMBL document CHEMBL3137667

Recorded Hepatotoxicity (severe hepatitis), one value per entry.
# CONDITION DESCRIPTION: human
The reply should be a number, written without any unit.

- COMPOUND: "CC(=O)/N=c1/sc(S(N)(=O)=O)nn1C [METHAZOLAMIDE]"
  OBSERVED VALUE: 0

Which value of Hepatotoxicity (severe hepatitis) has been reported for CC(C)NCC(O)COc1ccc(CC(N)=O)cc1 (stereo unspecified) in the records?
0

###

# CONDITION DESCRIPTION: human, serum
MEASUREMENT NAME: Hepatotoxicity (moderate)

- MOLECULE: "O=NN(CCCl)C(=O)NCCCl"
  OBSERVED VALUE: 8
- MOLECULE: "O=c1n(CCCN2CCN(c3cccc(Cl)c3)CC2)nc2ccccn12"
  OBSERVED VALUE: 0

Which value of Hepatotoxicity (moderate) has been reported for CCOC(=O)C1(c2ccccc2)CCN(CCC(O)c2ccccc2)CC1 (centres undefined) in the records?
0

Which value of Hepatotoxicity (moderate) has been reported for CC1=C(/C=C/C(C)=C/C=C/C(C)=C/C(=O)O)C(C)(C)CCC1 in the records?
26

Which value of Hepatotoxicity (moderate) has been reported for O=C(O)c1cc(=O)c2c(OCC(O)COc3cccc4oc(C(=O)O)cc(=O)c34)cccc2o1 in the records?
1

Which value of Hepatotoxicity (moderate) has been reported for N=C(N)NCCCCCCC(=O)NC(O)C(=O)NCCCCNCCCN (centres undefined) in the records?
1

Which value of Hepatotoxicity (moderate) has been reported for COc1ccc(-n2nc(CCC(=O)N(C)O)cc2-c2ccc(Cl)cc2)cc1 in the records?
1

Which value of Hepatotoxicity (moderate) has been reported for CC[C@@H](CO)NCCN[C@@H](CC)CO in the records?
1

Which value of Hepatotoxicity (moderate) has been reported for CC(C)(C#N)c1cc(Cn2cncn2)cc(C(C)(C)C#N)c1 in the records?
1

Which value of Hepatotoxicity (moderate) has been reported for CC(=O)N1CCN(c2ccc(OCC3COC(Cn4ccnc4)(c4ccc(Cl)cc4Cl)O3)cc2)CC1 (centres undefined) in the records?
62

Which value of Hepatotoxicity (moderate) has been reported for COC(=O)Nc1nc2ccc(C(=O)c3ccccc3)cc2[nH]1 in the records?
13

Which value of Hepatotoxicity (moderate) has been reported for C=C1c2cccc(O)c2C(=O)C2=C(O)[C@]3(O)C(=O)C(C(N)=O)=C(O)[C@@H](N(C)C)[C@@H]3[C@@H](O)[C@H]12 in the records?
0

Which value of Hepatotoxicity (moderate) has been reported for O=C1Nc2ccc(Cl)cc2C(c2ccccc2Cl)=NC1O (centres undefined) in the records?
1

###

Recorded Hepatotoxicity (cytolytic), one value per entry.
# CONDITION DESCRIPTION: human
The reply should be a number, written without any unit.

- COMPOUND: "CO/N=C(\\C(=O)N[C@@H]1C(=O)N2C(C(=O)O)=C(CSc3nc(C)c(CC(=O)O)s3)CS[C@H]12)c1csc(N)n1"
  OBSERVED VALUE: 0
- COMPOUND: "CCCc1c2oc(C(=O)O)cc(=O)c2cc2c(=O)cc(C(=O)O)n(CC)c12"
  OBSERVED VALUE: 0
- COMPOUND: "N[C@@H](Cc1ccc(N(CCCl)CCCl)cc1)C(=O)O"
  OBSERVED VALUE: 0
- COMPOUND: "CCCCOCC(CN1C(=O)NC(=O)C(CC)(c2ccccc2)C1=O)OC(N)=O (stereo unspecified) [FEBARBAMATE]"
  OBSERVED VALUE: 9

Which value of Hepatotoxicity (cytolytic) has been reported for CC(=O)/N=c1/sc(S(N)(=O)=O)nn1C [METHAZOLAMIDE] in the records?
0

Which value of Hepatotoxicity (cytolytic) has been reported for NCCC(O)(P(=O)(O)O)P(=O)(O)O in the records?
0

Which value of Hepatotoxicity (cytolytic) has been reported for CC(=O)OCC(=O)NCCCOc1cccc(CN2CCCCC2)c1 [ROXATIDINE ACETATE] in the records?
0

Which value of Hepatotoxicity (cytolytic) has been reported for N=C(N)c1ccc(/C=C/c2ccc(C(=N)N)cc2)cc1 in the records?
1

Which value of Hepatotoxicity (cytolytic) has been reported for Clc1ccc2c(c1)C(N1CCNCC1)=Nc1ccccc1O2 in the records?
2

Which value of Hepatotoxicity (cytolytic) has been reported for Cc1ncc([N+](=O)[O-])n1CCO in the records?
8

Which value of Hepatotoxicity (cytolytic) has been reported for CCN(CCO)CCCC(C)Nc1ccnc2cc(Cl)ccc12 (stereo unspecified) [HYDROXYCHLOROQUINE] in the records?
1

Which value of Hepatotoxicity (cytolytic) has been reported for O=C1NC(=S)NC(=O)C1C(=O)Nc1ccccc1 in the records?
0

Which value of Hepatotoxicity (cytolytic) has been reported for NC(N)=Nc1nc(CSCCN/C=N/S(=O)(=O)c2ccc(Br)cc2)cs1 in the records?
2

Which value of Hepatotoxicity (cytolytic) has been reported for CNC(=O)[C@@H](NC(=O)[C@H](CC(C)C)[C@H](O)C(=O)NO)C(C)(C)C in the records?
0

Which value of Hepatotoxicity (cytolytic) has been reported for OCCN1CCN(CCCN2c3ccccc3C=Cc3ccccc32)CC1 in the records?
2

Which value of Hepatotoxicity (cytolytic) has been reported for CCN(CC)C(=O)C1(c2ccccc2)CC1CN (stereo unspecified) in the records?
1

###

# TEST: Highest frequency of moderate liver toxicity observed during clinical trials, expressed as a percentage. [column '% BIOL' in source]
# CONDITION DESCRIPTION: human
Recorded Hepatotoxicity (moderate), one value per entry.
# number only, unit % dropped from output

Illustrative cases are given below, each with its answer.
- COMPOUND: "Cc1ccc(S(=O)(=O)NC(=O)NN2CCCCCC2)cc1 [TOLAZAMIDE]"
  Hepatotoxicity (moderate), %: 0
- COMPOUND: "O=C(O)Cc1sc(-c2ccccc2)nc1-c1ccc(Cl)cc1"
  Hepatotoxicity (moderate), %: 35
- COMPOUND: "NC(=O)c1ncn([C@@H]2O[C@H](CO)[C@@H](O)[C@H]2O)n1"
  Hepatotoxicity (moderate), %: 33
- COMPOUND: "COc1cc2nc(N3CCN(C(=O)C4CCCO4)CC3)nc(N)c2cc1OC (stereo not drawn)"
  Hepatotoxicity (moderate), %: 1.9
- COMPOUND: "O=c1[nH]c(=O)n([C@H]2C[C@H](O)[C@@H](CO)O2)cc1F"
  Hepatotoxicity (moderate), %: 100
- COMPOUND: "CC1=C(/C=C/C(C)=C/C=C/C(C)=C/C(=O)O)C(C)(C)CCC1"
  Hepatotoxicity (moderate), %: 85

Which value of Hepatotoxicity (moderate) has been reported for Nc1nc(N)nc(Nc2ccc([As]3SCC(CO)S3)cc2)n1 (stereo not drawn) in the records?
1

Which value of Hepatotoxicity (moderate) has been reported for CC[C@H]1OC(=O)[C@H](C)[C@@H](O[C@H]2C[C@@](C)(OC)[C@@H](O)[C@H](C)O2)[C@H](C)[C@@H](O[C@@H]2O[C@H](C)C[C@H](N(C)C)[C@H]2O)[C@](C)(O)C[C@@H](C)CN(C)[C@H](C)[C@@H](O)[C@]1(C)O in the records?
40

###

# CONDITION DESCRIPTION: human, Liver
Recorded Hepatotoxicity (severe hepatitis), one value per entry.
The reply should be a number, written without any unit.

Which value of Hepatotoxicity (severe hepatitis) has been reported for NCCCC(O)(P(=O)(O)O)P(=O)(O)O in the records?
1

Which value of Hepatotoxicity (severe hepatitis) has been reported for CC1(C)S[C@@H]2[C@H](NC(=O)[C@H](N)c3ccc(O)cc3)C(=O)N2[C@H]1C(=O)O in the records?
1

Which value of Hepatotoxicity (severe hepatitis) has been reported for COc1c2occc2cc2ccc(=O)oc12 in the records?
1

Which value of Hepatotoxicity (severe hepatitis) has been reported for Cc1cnc(C(=O)NCCc2ccc(S(=O)(=O)NC(=O)NC3CCCCC3)cc2)cn1 [GLIPIZIDE] in the records?
2

Which value of Hepatotoxicity (severe hepatitis) has been reported for CC[C@H](C)C(=O)O[C@H]1C[C@H](O)C=C2C=C[C@H](C)[C@H](CC[C@@H](O)C[C@@H](O)CC(=O)O)[C@H]21 in the records?
0

###

# TEST: Highest frequency of moderate liver toxicity observed during clinical trials, expressed as a percentage. [column '% BIOL' in source]
# CONDITION DESCRIPTION: human, Liver
Please enter yes (1) where Hepatotoxicity (moderate) is greater than or equal to 1%, and no (0) where it is lower.

# count of solved cases: 4
- MOLECULE: "CC1(C)S[C@@H]2[C@H](NC(=O)[C@H](N)c3ccc(O)cc3)C(=O)N2[C@H]1C(=O)O"
  LABEL VALUE: "yes (1)"
- MOLECULE: "CNCCC=C1c2ccccc2CCc2ccccc21"
  LABEL VALUE: "no (0)"
- MOLECULE: "CCCCNc1cc(C(=O)O)cc(S(N)(=O)=O)c1Oc1ccccc1 [BUMETANIDE]"
  LABEL VALUE: "yes (1)"
- MOLECULE: "CC(C)OC(=O)C(C)(C)Oc1ccc(C(=O)c2ccc(Cl)cc2)cc1 [FENOFIBRATE]"
  LABEL VALUE: "yes (1)"

Next molecule, please.
Is Hepatotoxicity (moderate) at least 1%? Consider CC(C)(C)NCC(O)c1ccc(O)c(CO)c1 (centres undefined)
no (0)
